test: MRP1 drug-resistance reversers in H69AR cells – cell-based, doxorubicin co-treatment, pilot screen (AID 601); details: H69AR cells, CellTiter-Glo, 72 h; compound alone cytotoxicity; at 10 µM
Friendly reminder: viability below 90% is YES, at or above is NO.

# count of solved cases: 5
[
  {
    "compound": "O=C(Cc1ccccc1)OC(COCc1ccccc1)CN1CCOCC1 (stereo unspecified)",
    "class-label": "NO"
  },
  {
    "compound": "Cc1ccc2c(c1)[C@@H]1CN(C)CC[C@@H]1N2C(=O)Nc1cccc(C(F)(F)F)c1",
    "class-label": "YES"
  },
  {
    "compound": "C[N+]1(C)CCc2cc3c(cc2[C@H]1[C@@H]1OC(=O)c2c1ccc1c2OCO1)OCO3",
    "class-label": "NO"
  },
  {
    "compound": "CCC(=NCC1CCCO1)c1c(O)n(Cc2ccccc2)c(=O)[nH]c1=O (stereo unspecified)",
    "class-label": "YES"
  },
  {
    "compound": "O=c1[nH]c(=O)n(-c2cccc3ccccc23)c(O)c1C=NCCCn1ccnc1",
    "class-label": "NO"
  }
]

Dear reviewer, please state whether CCOC(=O)C1CCCCC12C(C#N)=C(N)Oc1n[nH]c(C)c12 (stereo unspecified) has viability strictly beneath 90%.
NO

Dear reviewer, please state whether CC(C)OC(=O)c1c(N)n(CC2CCCO2)c2nc3ccccc3nc12 (stereo unspecified) has viability strictly beneath 90%.
NO

Dear reviewer, please state whether O=C(c1cccs1)C1CN2CCC1CC2 (stereo unspecified) has viability strictly beneath 90%.
NO

Dear reviewer, please state whether CC(=NCc1cccnc1)c1c(O)n(Cc2ccccc2)c(=O)[nH]c1=O has viability strictly beneath 90%.
NO

====

assay: MRP1 drug-resistance reversers in H69AR cells – cell-based, doxorubicin co-treatment, pilot screen (AID 601); conditions: H69AR cells + 2 uM doxorubicin, CellTiter-Glo, 72 h; measured here: viability with 2 uM doxorubicin; at 10 µM; stronger effect = lower value
Peptide text beside a SMILES is read from it.
measured-endpoint: viability (%)
One number for each entry, in %.

Consider the worked cases shown below.
[
  {
    "compound": "COc1ccccc1CN1CCN(C(=O)Cc2ccccc2)CC1",
    "unit-of-measurement": "%",
    "viability": 96.1
  },
  {
    "compound": "CN1[C@@H]2CC[C@H]1CC(OC(=O)C1C=Nc3ccccc31)C2 (stereo partly specified)",
    "unit-of-measurement": "%",
    "viability": 97.7
  }
]

Quick one: give me viability for each item below, same order please.
1. Nc1ccccc1C(=O)OC1CSC1
2. CCOC(=O)C1CCCCC12C(C#N)=C(N)Oc1n[nH]c(C)c12 (stereo unspecified)
3. CC(C)C[C@H](NC(=O)[C@@H]1CCCN1C(=O)[C@@H](N)Cc1ccc(O)cc1)C(=O)NCC(N)=O (H-YPLG-NH2)

88.7
99.6
96.8

====

assay: MRP1 drug-resistance reversers in H69AR cells – cell-based, doxorubicin co-treatment, pilot screen (AID 601); details: H69AR cells + 2 uM doxorubicin, CellTiter-Glo, 72 h; measured here: viability with 2 uM doxorubicin; at 10 µM; stronger effect = lower value
measured-endpoint: viability (%)
Answers are plain numbers, in %.

Quick one: give me viability for each item below, same order please.
1. CC(C)OCCCNC(=O)c1c(N)n(CC2CCCO2)c2nc3ccccc3nc12 (stereo not given)
2. CN1C(=O)C(Cc2cccc3ccccc23)C(=O)N(C)C1=O
3. c1ccc(Cn2ccnc2)cc1
4. CC[C@@H](CO)NC(=O)[C@@H]1C=C2c3cccc4c3c(cn4C)C[C@H]2N(C)C1
5. COC(=O)C1C2c3ccccc3OC1(C)N=c1s/c(=C/c3cnn(C)c3C)c(=O)n12 (stereo not given)
6. CC(NC(C)(C)C)C(=O)c1cccc(Cl)c1 (stereo not given)
7. C=CCN1C(=O)C2(C(C(=O)OCC)=C(N)Oc3c2c(=O)oc2ccccc32)c2ccccc21 (stereo not given)
8. Cc1ccc(C)c(NC(=O)CSc2nnc([C@@H](N)Cc3c[nH]c4ccccc34)o2)c1

[79.2, 92.4, 93.7, 96.6, 88.8, 95.5, 109, 92.9]

Quick one: give me viability for each item below, same order please.
1. COc1ccc(CCNC(=O)c2c(N)n(CCN3CCOCC3)c3nc4ccccc4nc23)cc1
2. CCOC(=O)C1=C(N)OC(C)=C(C(=O)OCCOC)C12C(=O)Nc1ccccc12 (stereo not given)
3. CCOc1ccc(Br)c(C2(O)CC(C)N(C)CC2C)c1 (stereo not given)

1: 39.8; 2: 107; 3: 77.1

Quick one: give me viability for each item below, same order please.
1. O=c1[nH]c2ccccc2n1CCCN1CCC(n2c(=O)[nH]c3cc(Cl)ccc32)CC1
2. N#Cc1ccccc1Cn1cc(C(=O)C2CC2)c2ccccc21
3. O=C(NC1(C(F)(F)F)Oc2ccc(Cl)cc2O1)N1CCC2(CC1)OCCO2 (stereo not given)
4. COc1ccc(C2NCc3ccc4c(c3-n3cccc32)OCO4)cc1O (stereo not given)

82.5
91.8
51.7
67
